The measurements presented in this section are drawn from patent US20150313990A1.

- target_or_system: recombinant soluble CD4 (number of domains not stated), P01730
- experiment_description: SPR; biotinylated pV2α (235 RU) on neutravidin-coated CM3 chip, recombinant soluble CD4 in solution; koff-KD distribution model
No end group written: not given here.
property_measured: pKd
Please report pKd as the negative decimal logarithm of the molar concentration, giving only the number.

Entry under test: KVQKEYALFYELDIVPID (not fully specified) [biotinylated peptide pV2α (captured on neutravidin chip or biotin-captured in ELISA)] . Its pKd was 2.40
